Reference source for all entries: PubChem BioAssay AID1963446

test system: 993429-296-R-J1-PDC complex spheroid growth, percent test/control; assay: Anticancer human tumor 993429-296-R-J1-PDC patient-derived uterine sarcoma cell line growth inhibition [Asc]; settings: curve of first compound; second compound 0.0949 µM;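 further: spheroids exposed to compounds for seven days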
Measurement kind: IC50 (nM)

>>> value_reported("COc1c(OCCCN2CCOCC2)ccc2c3n(c(=NC(=O)c4cnc(N)nc4)nc12)CCN3 + CCN1C(C(=O)NC23CCC(C(=O)O)(CC2)CC3)C(c2cccc(Cl)c2F)C2(C(=O)Nc3cc(Cl)ccc32)C12CCCCC2")
26.1
>>> value_reported("O=C(c1cc(Cc2n[nH]c(=O)c3ccccc23)ccc1F)N1CCN(C(=O)C2CC2)CC1 + CCN1C(C(=O)NC23CCC(C(=O)O)(CC2)CC3)C(c2cccc(Cl)c2F)C2(C(=O)Nc3cc(Cl)ccc32)C12CCCCC2")
4840
>>> value_reported("Cc1nc(N2CCC3(CC2)COC(C)C3N)c(CO)nc1Sc1ccnc(N)c1Cl (configuration not stated) + CCN1C(C(=O)NC23CCC(C(=O)O)(CC2)CC3)C(c2cccc(Cl)c2F)C2(C(=O)Nc3cc(Cl)ccc32)C12CCCCC2")
159
>>> value_reported("Cn1ncnc1[C@H]1c2n[nH]c(=O)c3cc(F)cc(c23)N[C@@H]1c1ccc(F)cc1 + CCN1C(C(=O)NC23CCC(C(=O)O)(CC2)CC3)C(c2cccc(Cl)c2F)C2(C(=O)Nc3cc(Cl)ccc32)C12CCCCC2")
75.8
>>> value_reported("NC(=O)C(=Cn1cnc(-c2cc(C(F)(F)F)cc(C(F)(F)F)c2)n1)c1cncnc1 + CCN1C(C(=O)NC23CCC(C(=O)O)(CC2)CC3)C(c2cccc(Cl)c2F)C2(C(=O)Nc3cc(Cl)ccc32)C12CCCCC2")
15.5
>>> value_reported("C#Cc1c(F)ccc2cc(O)cc(-c3ncc4c(N5CC6CCC(C5)N6)nc(OCC56CCCN5CC(F)C6)nc4c3F)c12 (configuration not stated) + CCN1C(C(=O)NC23CCC(C(=O)O)(CC2)CC3)C(c2cccc(Cl)c2F)C2(C(=O)Nc3cc(Cl)ccc32)C12CCCCC2")
5400
>>> value_reported("O=C(c1ccc(F)c(F)c1Nc1ccc(I)cc1F)N1CC(O)([C@@H]2CCCCN2)C1 + CCN1C(C(=O)NC23CCC(C(=O)O)(CC2)CC3)C(c2cccc(Cl)c2F)C2(C(=O)Nc3cc(Cl)ccc32)C12CCCCC2")
64.6
>>> value_reported("C=C(F)C(=O)N1CCN(c2nc(OCC3CCCN3C)nc3c2CCN(c2cccc4cccc(Cl)c24)C3)CC1CC#N (configuration not stated) + CCN1C(C(=O)NC23CCC(C(=O)O)(CC2)CC3)C(c2cccc(Cl)c2F)C2(C(=O)Nc3cc(Cl)ccc32)C12CCCCC2")
1200
